Molecular target: T1, human Activin A (R&D Systems) (human, UniProt P08476 311-426)
T1 sequence (looked up): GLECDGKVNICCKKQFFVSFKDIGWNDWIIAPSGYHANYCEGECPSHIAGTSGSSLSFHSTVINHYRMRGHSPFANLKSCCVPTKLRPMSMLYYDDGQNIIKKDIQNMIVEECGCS
Assay: cell-based or functional assay
PROPERTY: ARE-luciferase IC50 (nM)

{"BINDER": "1979_B06 (designed binder, monoAdnectin with His6 tag; also called ATI-1133) MGVSDVPRDLEVVAATPTSLLISWSLPHAGHVNYYRITYGETGGNSPVQEFTVPGRGVTATISGLKPGVDYTITVYAVTLTKSQMIHYMPISINYRTEIDKPSQHHHHHH", "PROPERTY": "ARE-luciferase IC50", "UNIT ANNOTATION": "nM", "NUMERIC READOUT": 194}
{"BINDER": "ATI-1275 [N-ethylmaleimide] (designed binder, N-ethylmaleimide on the Cys of the EGSGC tail, cysteine mutant of 2524_D09) MGVSDVPRDLEVVAATPTSLLISWYLPYPAHMNYYRITYGETGGNSPVQEFTVPGRGLTATISGLKPGVDYTITVYAVTLTKSQILHHRPISINYRTEGSGCHHHHHH", "PROPERTY": "ARE-luciferase IC50", "UNIT ANNOTATION": "nM", "NUMERIC READOUT": 19}
